# experimental-system: HLA-A3.2 (A*0301) (Homo sapiens, UniProt P04439)
# method-notes: biochemical
# Type: binding
No end group written: not given here.
property: IC50 (nM)
Quick note: give the figure in nM, leave out the unit.

>>> numeric_value("RFHNIAGHYR [Peptide 78.0097]")
2460
>>> numeric_value("SQWIKYRCSK [Peptide 88.0174]")
944
>>> numeric_value("WTIAYIEYR [Peptide 9017.0116]")
11300
>>> numeric_value("VSYWGVYYIK [Peptide 1589.25]")
109
>>> numeric_value("FADLTVVYR [Peptide 78.0318]")
19200
>>> numeric_value("VVCTYSPALNK [Peptide 1556.35]")
370

Record summary for WFFVETIVEK [Peptide 88.0171] : reported IC50 = 13700

Record summary for LALTALITPK [Peptide 9017.0228] : reported IC50 = 88

Record summary for LLCGPANTGK [Peptide 88.0195] : reported IC50 = 137

Record summary for IVGWPAVRER [Peptide 9017.0186] : reported IC50 = 630

Record summary for ALTALITPK [Peptide 9017.0099] : reported IC50 = 17

Record summary for RILSTYLGR [Peptide 9017.0072] : reported IC50 = 7.5

Record summary for KTDEGGDWK [Peptide 88.0380] : reported IC50 = 3630

Record summary for RVHSSHLK [Peptide 1556.72] : reported IC50 = 144

Record summary for FTAFLVAFK [Peptide 88.0389] : reported IC50 = 45

Record summary for TLYAEPPK [Peptide 1556.12] : reported IC50 = 734

Record summary for VVYRLVWDK [Peptide 1589.38] : reported IC50 = 63

---

# experimental-system: A31 (A*3101) (Homo sapiens, UniProt P04439, A270S/D185E/E176V/E277Q/F33T/G231S/G80R/H175R/I121M/I218V/I322F/K168Q/L300P/L318F/M331R/P217A/Q94H/R138Q/T323A/T345S/T97I/V358M)
# method-notes: biochemical
# Format: binding
No end group written: not given here.
property: IC50 (nM)
Quick note: give the figure in nM, leave out the unit.

>>> numeric_value("EVLMWKFDSR [Peptide 9017.0192]")
436
>>> numeric_value("LQGKLYYKFK [Peptide 88.0184]")
3710
>>> numeric_value("YGFRLGFLK [Peptide 1556.27]")
224

Record summary for FTAFLVAFK [Peptide 88.0389] : reported IC50 = 663

Record summary for ITVYYGVPVWR [Peptide 1525.06] : reported IC50 = 13

Record summary for VFCGPANTGK [Peptide 88.0150] : reported IC50 = 485

Record summary for RINTWKSLVK [Peptide 9017.0215] : reported IC50 = 632

Record summary for ALFTAQEAK [Peptide 88.0323] : reported IC50 = 2660

Record summary for AAFDLSFFLK [Peptide 9017.0189] : reported IC50 = 130

Record summary for EVHIPLGDAR [Peptide 9017.0217] : reported IC50 = 9920

Record summary for SQRLNVCQDK [Peptide 88.0205] : reported IC50 = 13400

Record summary for KLTEDRWNK [Peptide 9017.0108] : reported IC50 = 55

Record summary for EQNEALELK [Peptide 1556.69] : reported IC50 = 2300

Record summary for AILGHIVIPR [Peptide 9017.0224] : reported IC50 = 2

Hello, the source for this data is patent US9340577B2, in case you need it.
